Assay: Plasma stability, mouse plasma
Settings: mouse plasma, 37° C., timepoint 24 h
Bridge positions count the residues as written; N and C are the ends. Peptide text beside a SMILES is read from it.
readout type: Tube 3 (compound concentration)
Reply with the value as a number alone.

CC(=O)N[C@@H](CO)C(=O)N[C@@H](CCCNC(=N)N)C(=O)N[C@@H](CC(C)C)C(=O)N[C@@H](CCC(=O)O)C(=O)N[C@@H](CCC(=O)O)C(=O)N[C@@H](CCC(=O)O)C(=O)N[C@@H](CC(C)C)C(=O)N[C@@H](CCCNC(=N)N)C(=O)N[C@H]1CCCCNC(=O)CC[C@@H](C(N)=O)NC(=O)[C@H]([C@@H](C)O)NC(=O)[C@H](CC(C)C)NC(=O)[C@H](CCCNC(=N)N)NC1=O [SD15193] (Ac-SRLEEELRKRLTE-NH2; lactam 9-13)    1.236
CC(=O)N[C@@H](CO)C(=O)N[C@@H](CCCNC(=N)N)C(=O)N[C@@H](CC(C)C)C(=O)N[C@@H](CCC(=O)O)C(=O)N[C@H]1CCC(=O)NCCCC[C@@H](C(=O)N[C@@H](CCCNC(=N)N)C(=O)N[C@@H](CC(C)C)C(=O)N[C@H](C(=O)N[C@@H](CCC(=O)O)C(N)=O)[C@@H](C)O)NC(=O)[C@H](CCCNC(=N)N)NC(=O)[C@H](CC(C)C)NC(=O)[C@H](CCC(=O)O)NC1=O [SD15194] (Ac-SRLEEELRKRLTE-NH2; lactam 5-9)    1.62

Inquiry: What Tube 3 (compound concentration) value was documented for this molecule, CC(=O)N[C@@H](CO)C(=O)N[C@@H](CCCNC(=N)N)C(=O)N[C@@H](CC(C)C)C(=O)N[C@@H](CCC(=O)O)C(=O)N[C@H]1CCC(=O)NCCCC[C@@H](C(=O)N[C@@H](CCCNC(=N)N)C(=O)N[C@@H](CCCNC(=N)N)C(=O)N[C@@H](CC(C)C)C(=O)N[C@H](C(=O)N[C@@H](CCC(=O)O)C(N)=O)[C@@H](C)O)NC(=O)[C@H](CC(C)C)NC(=O)[C@H](CCC(=O)O)NC1=O [SD15192] (Ac-SRLEEELKRRLTE-NH2; lactam 5-8) ?
Reply text: 0.638
